Target: N-acylethanolamine-hydrolyzing acid amidase (Homo sapiens, UniProt Q02083)
Sequence (Q02083 whole entry): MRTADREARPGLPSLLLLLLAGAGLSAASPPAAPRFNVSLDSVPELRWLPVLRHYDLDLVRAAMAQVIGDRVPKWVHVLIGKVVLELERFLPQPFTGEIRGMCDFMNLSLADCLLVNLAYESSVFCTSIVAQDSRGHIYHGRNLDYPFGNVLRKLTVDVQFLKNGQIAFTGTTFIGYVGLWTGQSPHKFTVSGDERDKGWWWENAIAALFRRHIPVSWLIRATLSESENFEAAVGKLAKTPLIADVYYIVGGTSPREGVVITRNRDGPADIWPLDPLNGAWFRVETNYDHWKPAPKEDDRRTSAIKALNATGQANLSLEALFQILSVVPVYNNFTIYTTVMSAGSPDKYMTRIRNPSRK
measured_property: IC50 (nM)
Give the quantity in nM, number only.

Inquiry: Entry COc1ccc(CCCCOC(=O)N[C@H]2CNC2=O)cc1 : reported IC50 = ?
Reply text: 520
